- SYSTEM UNDER TEST: GFP-WT-SAP (SAF-A SAP domain) (UniProt Q00839)
- ASSAY METHOD TEXT: EMSA
EXPERIMENTAL READOUT: Kd (µM)
Give your result in µM as a bare value.

Quick note, Kd for AATTCAGAAAATAATAAAATAAAACTAGCTATTTTATATTTTTTC (double strand) [AT-rich SAR DNA] landed at 16.5

====

- SYSTEM UNDER TEST: GFP-S14D S26D-SAP (phosphomimetic SAF-A SAP domain) (UniProt Q00839)
- ASSAY METHOD TEXT: EMSA
EXPERIMENTAL READOUT: Kd

Quick note, Kd for AATTCAGAAAATAATAAAATAAAACTAGCTATTTTATATTTTTTC (double strand) [AT-rich SAR DNA] landed at > 75 µM

Values from paper doi:10.1101/813527
